System: EKVX
Experiment: NCI tumour cell line growth inhibition, 48 h
The source made the active and inactive calls. Cut-off read from the data, not from the text of the source: active = GI50 up to about 1.1 µM and inactive = higher.
Classes used: yes (1) for active, no (0) for inactive

• O=C1c2cc(Cl)ccc2N=C(NC2CCCC2)C2CSCN12 (configuration not stated) = no (0)
• N=C(N)SCc1ccc(Cl)c2ccccc12.O=[N+]([O-])c1ccc(O)c([N+](=O)[O-])c1 = no (0)
• O=C(O)c1c[nH]c2c(Sc3ccccc3)nccc2c1=O = no (0)
• N#Cc1c(O)nc2[nH]nc(/N=N\c3c(O)ccc4ccccc34)c2c1-c1ccc(Cl)cc1 = yes (1)
• CCCCCC(O)(CCCCC)CCCCCCCCC1=C(O)C(=O)c2ccc(=O)[nH]c2C1=O = no (0)
• C=C(Br)CNC(=O)CCC(=O)NCC(=C)Br = no (0)
• CCN(CC)c1ccc2cc(C(=O)Nc3cccc4ccccc34)c(=N)oc2c1 = no (0)
• Cc1ccc(NC(=O)C(=O)CC(=O)C2CCOC2=O)c(C)c1 (configuration not stated) = no (0)
• O=C1Nc2ccccc2/C1=N/N=C1NCCCCN1 = no (0)
• COC(=O)C1=C2Nc3ccccc3C23CCN2C(O)C4(CC5CC67CCOC6CCN6CCC8(c9cccc(OC)c9N(C4)C58O)C67)C4OCCC4(C1)C23 (configuration not stated) = no (0)
• O=P(NC12CC3CC(CC(C3)C1)C2)(N1CC1)N1CC1 = no (0)
• CCN(CC)CCNC(=O)c1ccc(I)cc1 = no (0)
• Cc1ncc([N+](=O)[O-])n1CC(O)Cn1ccnc1[N+](=O)[O-] (configuration not stated) = no (0)
• CN(/N=C/c1ccccn1)C1=NCCCCN1 = no (0)
• C=CC1(C)CCC2C(=CCC3C2(C)CC(O)C(O)C3(C)COC2OC(CO)C(O)C(O)C2O)C1 (configuration not stated) = no (0)
• Cc1nn(C(=O)c2ccccc2O)c2c1C(c1ccc(O)cc1)SC(=N)N2 (configuration not stated) = no (0)
• Cc1nc(-n2nc(-c3ccccc3)cc2-c2ccccc2)sc1C(=O)/C=C/c1ccc([N+](=O)[O-])cc1 = no (0)
• O=C1CSC(c2ccccc2O)N1c1ccc(-c2ccc(-n3c(-c4ccccc4)nc4ccccc4c3=O)cc2)cc1 (configuration not stated) = no (0)
• Nc1ccc(C2SCC(=O)N2NS(=O)(=O)c2cccc(C(=O)O)c2)cc1 (configuration not stated) = no (0)
• CC1=C(C(=O)NNC(=O)CC#N)CC(C(=O)NNC(=O)CC#N)=C(C)N1 = no (0)
• C[N+](C)(C)CC(CC(=O)[O-])C1CC1 (configuration not stated) = no (0)
• Cc1c(C(=O)CC(=O)C(=O)Nc2c(C(C)C)cccc2C(C)C)[n+]([O-])c2ccccc2[n+]1[O-] = no (0)

This collection of values is drawn from ChEMBL document CHEMBL1201862.
